Data origin: ChEMBL document CHEMBL4507263

SYSTEM NAME: voltage-gated sodium channel, site 2 (Rattus norvegicus, UniProt F1LQQ7+O08562+O88420+O88457+P04774+P04775+P08104+P15389+P15390+Q62968)
PROCEDURE SUMMARY: Inhibition of Sodium Channel, Site 2 at 10 µM in the Eurofins-Panlabs radioligand binding assay (Eurofins_assay_279510)
Assay type: protein assay
Parameters: ligand concentration 5 nM, non-specific ligand with concentration 100 µM Veratridine, incubation time 60 min, incubation temperature 37 °C
ASSAY CONDITIONS: male, Wistar, rat whole brain (except cerebellum) membranes, probe [3H] Batrachotoxinin, compound concentration 10 uM
OUTCOME MEASURE: inhibition at 60 min, 10 µM

INPUT: # get_value(readout='inhibition at 60 min, 10 µM', item= CC1=C(C#N)C(c2ccc3[nH]nc(C)c3c2)C(C#N)=C(C)N1 [BAY-474] )
OUTPUT: -1% (not active)

* * *

SYSTEM NAME: Ribosomal protein S6 kinase alpha-3 (Homo sapiens)
Sequence (P51812 whole entry): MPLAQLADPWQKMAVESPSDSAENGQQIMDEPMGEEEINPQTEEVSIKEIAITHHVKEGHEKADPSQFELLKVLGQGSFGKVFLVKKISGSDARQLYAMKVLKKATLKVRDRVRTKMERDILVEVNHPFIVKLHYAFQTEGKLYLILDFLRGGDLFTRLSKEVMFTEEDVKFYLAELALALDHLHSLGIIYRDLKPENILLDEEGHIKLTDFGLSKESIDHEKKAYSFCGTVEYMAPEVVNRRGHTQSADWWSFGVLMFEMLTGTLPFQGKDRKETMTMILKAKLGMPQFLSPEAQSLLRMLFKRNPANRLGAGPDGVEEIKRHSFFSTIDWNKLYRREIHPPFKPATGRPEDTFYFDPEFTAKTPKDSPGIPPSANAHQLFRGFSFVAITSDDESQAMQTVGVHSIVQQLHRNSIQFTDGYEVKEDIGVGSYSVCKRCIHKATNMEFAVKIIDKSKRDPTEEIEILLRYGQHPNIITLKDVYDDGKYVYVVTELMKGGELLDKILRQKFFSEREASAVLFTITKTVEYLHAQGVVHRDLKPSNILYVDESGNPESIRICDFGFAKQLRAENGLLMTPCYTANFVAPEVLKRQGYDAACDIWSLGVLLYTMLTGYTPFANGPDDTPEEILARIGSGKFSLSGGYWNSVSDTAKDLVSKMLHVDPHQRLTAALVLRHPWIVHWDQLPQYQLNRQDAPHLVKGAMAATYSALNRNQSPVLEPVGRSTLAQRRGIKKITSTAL
OUTCOME MEASURE: pIC50
// field semantics: pIC50 = negative decimal log of concentration (mol/L)

INPUT: What does the record list as pIC50 for `CC1=C(C#N)C(c2ccc3[nH]nc(C)c3c2)C(C#N)=C(C)N1` ?
OUTPUT: 6.05

* * *

Protein target, amino acids: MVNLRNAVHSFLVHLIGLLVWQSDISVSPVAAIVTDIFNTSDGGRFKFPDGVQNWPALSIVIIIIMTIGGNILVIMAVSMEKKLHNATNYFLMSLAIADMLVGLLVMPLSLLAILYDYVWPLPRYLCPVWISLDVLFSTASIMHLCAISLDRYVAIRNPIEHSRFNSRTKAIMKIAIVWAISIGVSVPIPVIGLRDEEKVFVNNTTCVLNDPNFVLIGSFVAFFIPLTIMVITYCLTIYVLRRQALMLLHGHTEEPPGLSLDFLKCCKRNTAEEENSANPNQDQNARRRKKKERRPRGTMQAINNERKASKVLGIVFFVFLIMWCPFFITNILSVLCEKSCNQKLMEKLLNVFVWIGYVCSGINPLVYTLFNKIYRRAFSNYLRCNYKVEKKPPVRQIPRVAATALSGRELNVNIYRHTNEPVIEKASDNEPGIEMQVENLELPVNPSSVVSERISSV
OUTCOME MEASURE: pKi
When answering, recall that pKi equals minus log10 of the concentration in mol/L, and write that number alone.

INPUT: May I ask what pKi has been recorded for `CC1=C(C#N)[C@@H](c2ccc3[nH]nc(C)c3c2)C(C#N)=C(c2ccc(Cl)cc2)N1` ?
OUTPUT: 5.00

* * *

SYSTEM NAME: 5-hydroxytryptamine receptor 6 (Homo sapiens)
Sequence (P50406 whole entry): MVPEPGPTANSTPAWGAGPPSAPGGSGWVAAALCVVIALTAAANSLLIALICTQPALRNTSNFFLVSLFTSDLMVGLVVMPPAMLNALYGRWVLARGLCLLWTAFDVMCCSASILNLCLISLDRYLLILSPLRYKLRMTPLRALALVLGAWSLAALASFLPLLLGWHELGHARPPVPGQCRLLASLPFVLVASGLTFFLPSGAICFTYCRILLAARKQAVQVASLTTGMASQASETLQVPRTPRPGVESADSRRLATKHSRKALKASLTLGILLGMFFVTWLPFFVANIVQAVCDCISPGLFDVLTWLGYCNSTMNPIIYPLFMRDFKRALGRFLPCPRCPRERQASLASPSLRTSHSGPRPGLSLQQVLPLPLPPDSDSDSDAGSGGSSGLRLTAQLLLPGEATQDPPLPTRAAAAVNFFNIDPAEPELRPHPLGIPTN
OUTCOME MEASURE: Ki
Report as: number unit

INPUT: Ki for CC1=C(C#N)[C@@H](c2ccc3[nH]nc(C)c3c2)C(C#N)=C(c2ccc(Cl)cc2)N1 [BAY-827] ?
OUTPUT: 674 nM

* * *

PROCEDURE SUMMARY: GPCRScan assay: inhibition of GABA/PBR
Parameters: species or system Rattus norvegicus; radioligand conc. used [nm] 0.3 – 2.0, parental cells brain tissue
OUTCOME MEASURE: Ki
Write the figure, then the unit, nothing else.

INPUT: Please give the measured Ki for this compound: `CC1=C(C#N)[C@@H](c2ccc3[nH]nc(C)c3c2)C(C#N)=C(c2ccc(Cl)cc2)N1`
OUTPUT: 2.4 µM
